# credit: the RNAGym collection of RNA variant scans (doi:10.1073/pnas.2313332121)

B1: TPR 5TU (parent)
chain: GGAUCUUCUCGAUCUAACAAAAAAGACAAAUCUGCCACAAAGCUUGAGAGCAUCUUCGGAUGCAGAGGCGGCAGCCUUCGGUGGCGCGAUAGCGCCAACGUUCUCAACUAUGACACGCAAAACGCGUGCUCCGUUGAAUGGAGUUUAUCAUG

# Variants of: B1
# assay overview: polymerase ribozyme fitness, log enrichment relative to wild type (log ratio); higher = more active; in vitro selection for triplet polymerase activity
This sample holds only a part of the variants without activity.
attribute measured: polymerase ribozyme fitness (log ratio)
Write no unit; give the number alone.

Some variants with recorded polymerase ribozyme fitness (log ratio):
C27G: -3.12
C69A C76U A98U C125U: -1.9
G58A G59A A122G U148C: -2.64

Q: For the variant A37U A142G G152U , give its reported polymerase ribozyme fitness (log ratio).
A: -4.13
